Taken from the Human Domainome abundance scans (Beltran et al. 2025).

B1: Zinc finger MYM-type protein 6, residues 427 to 504; numbered along this chain, O95789 (parent)
chain: KLKCQHCNHLFATKPELLFYKGKMFLFCGKNCSDEYKKKNKVVAMCDYCKLQKIIKETVRFSGVDKPFCSEVCKFLSA

- Variants of: B1
- ASSAY REMARKS: abundance fitness (aPCA) (normalised: wild type 0, dead -1); higher = more abundant; growth selection in yeast, the domain comes from the species named
- CONDITION INFO: Homo sapiens
Label Y when abundance fitness is at or above -0.2; anything below gets N.

MUTATION NAME	LABEL VALUE
S33C	Y
V43E	Y
M24V	Y
S33D	N
D47C	Y
S70G	N
G63S	N
F61I	Y

# next variant below
Would you say F61S shows abundance fitness at minimum -0.2?
Y
